The measured values listed here are drawn from PubChem BioAssay (NCI).

Tested on: UO-31 renal
Assay: NCI tumour cell line growth inhibition, 48 h
reported_property: TGI

Request: Quick check: TGI of O=C(O)c1cc2ccccc2oc1=O ?
Result: > 100 µM

Request: For O=C(CC1(O)C(=O)Nc2ccccc21)c1ccco1 (stereo unspecified) then?
Result: > 100 µM

Request: For COc1cc(O)c2c(c1)C(=O)C=C(Cl)C2=O then?
Result: > 100 µM

Request: For Oc1ccccc1C=Nc1ccc(-c2nc3ccccc3[nH]2)cc1 then?
Result: > 100 µM

Request: For COC(=O)NC1(NC(=O)OC)NC(=O)c2cc(OC)c(OC)c(OC)c2N1 then?
Result: > 100 µM

Request: For O=C(Nc1cccc(Cc2cccc(NC(=O)c3ccccc3)c2)c1)c1ccccc1 then?
Result: 66.3 µM
